Entries and their Trimeric HA Binding: RLU
Target: recombinant soluble homotrimeric HA, A/Vietnam/1203/04 H5N1 (Influenza A virus A/VietNam/1203/2004(H5N1))
Experiment: microarray, transfection SN IgG, trimeric HA
Conditions: remark: other sources report otherwise
endpoint_name: Trimeric HA Binding: RLU (RLU)

[
  {
    "binder": "TCN-550 (5096_F06) (antibody, V domains shown) VH: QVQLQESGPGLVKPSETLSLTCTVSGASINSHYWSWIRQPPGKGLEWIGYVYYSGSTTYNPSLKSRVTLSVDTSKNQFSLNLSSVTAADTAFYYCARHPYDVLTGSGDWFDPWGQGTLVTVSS VL: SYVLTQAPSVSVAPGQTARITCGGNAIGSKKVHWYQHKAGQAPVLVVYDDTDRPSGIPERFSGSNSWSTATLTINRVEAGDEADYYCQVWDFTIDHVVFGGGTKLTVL",
    "endpoint_name": "Trimeric HA Binding: RLU",
    "unit_symbol": "RLU",
    "result": 41900
  },
  {
    "binder": "TCN-551 (5243_D01) (antibody, V domains shown) VH: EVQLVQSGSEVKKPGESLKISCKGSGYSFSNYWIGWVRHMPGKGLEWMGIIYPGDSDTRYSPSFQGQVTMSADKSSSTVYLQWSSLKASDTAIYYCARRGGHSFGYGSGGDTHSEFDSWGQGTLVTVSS VL: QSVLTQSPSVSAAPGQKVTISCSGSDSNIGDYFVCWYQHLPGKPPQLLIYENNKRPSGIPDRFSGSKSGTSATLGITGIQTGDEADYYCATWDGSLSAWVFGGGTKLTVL",
    "endpoint_name": "Trimeric HA Binding: RLU",
    "unit_symbol": "RLU",
    "result": 41900
  }
]
